# Study System: PSMA-expressing LNCaP cells (Homo sapiens)
# Construct: PSMA-expressing LNCaP cells; endogenous in cells; host or cells: LNCaP
# Sequence (Q04609 whole entry): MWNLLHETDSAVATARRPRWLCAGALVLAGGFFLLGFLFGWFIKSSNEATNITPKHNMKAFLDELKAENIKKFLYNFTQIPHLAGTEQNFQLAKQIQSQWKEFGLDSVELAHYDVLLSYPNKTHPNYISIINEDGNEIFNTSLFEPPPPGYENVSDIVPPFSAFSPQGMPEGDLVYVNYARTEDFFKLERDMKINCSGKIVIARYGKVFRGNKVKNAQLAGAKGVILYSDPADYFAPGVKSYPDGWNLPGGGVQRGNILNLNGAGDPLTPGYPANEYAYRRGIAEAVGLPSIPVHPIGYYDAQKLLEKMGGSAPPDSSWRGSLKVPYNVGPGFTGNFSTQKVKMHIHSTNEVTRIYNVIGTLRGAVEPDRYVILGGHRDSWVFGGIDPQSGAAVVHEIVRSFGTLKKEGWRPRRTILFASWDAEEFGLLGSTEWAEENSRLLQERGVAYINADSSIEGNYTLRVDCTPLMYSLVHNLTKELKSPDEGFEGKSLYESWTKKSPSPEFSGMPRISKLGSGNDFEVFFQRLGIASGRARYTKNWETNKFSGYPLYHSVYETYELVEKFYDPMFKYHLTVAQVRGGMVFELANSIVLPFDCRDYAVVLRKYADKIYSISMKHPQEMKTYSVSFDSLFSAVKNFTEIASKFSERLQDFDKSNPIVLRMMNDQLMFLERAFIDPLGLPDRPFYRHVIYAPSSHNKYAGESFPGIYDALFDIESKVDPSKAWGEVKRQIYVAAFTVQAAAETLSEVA
# Assay Remarks: Binding competition assay against 3H-PSMA-617 on LNCaP cells
# Test Parameters: LNCaP cells; 10 nM 3H-PSMA-617; competing non-radiolabeled compound 10 nM; 2 h at 37° C.; triplicates
Property Name: remaining activity at 0.01 µM (%)

Completed entries (count: 3):
INSERT INTO assay_data (compound, property_name, reported_result) VALUES
  ('Cc1ccc(C[C@H](NC(=O)[C@H]2CC[C@H](CN)CC2)C(=O)NCCCC[C@H](NC(=O)N[C@@H](CCC(=O)O)C(=O)O)C(=O)O)cc1', 'remaining activity at 0.01 µM', 108),
  ('NC[C@H]1CC[C@H](C(=O)N[C@@H](CCCCNC(N)=O)C(=O)NCCCC[C@H](NC(=O)N[C@@H](CCC(=O)O)C(=O)O)C(=O)O)CC1', 'remaining activity at 0.01 µM', 109),
  ('NCC1CCC(C(=O)N[C@@H](CCCNC(N)=O)C(=O)NCCCC[C@H](NC(=O)N[C@@H](CCC(=O)O)C(=O)O)C(=O)O)CC1 (some centres unmarked)', 'remaining activity at 0.01 µM', 106);

1 = O=C(O)CC[C@H](NC(=O)N[C@@H](CCCCNC(=O)[C@@H](Cc1ccc2cnccc2c1)NC(=O)[C@H]1CC[C@H](CNC(=O)CN2CCN(CC(=O)O)CCN(CC(=O)O)CCN(CC(=O)O)CC2)CC1)C(=O)O)C(=O)O
2 = NCc1ccc(C(=O)N[C@@H](Cc2ccc3ccccc3n2)C(=O)NCCCC[C@H](NC(=O)N[C@@H](CCC(=O)O)C(=O)O)C(=O)O)nc1
3 = NC[C@H]1CC[C@H](C(=O)N[C@H](Cc2ccc3c(c2)CCCO3)C(=O)NCCCC[C@H](NC(=O)N[C@@H](CCC(=O)O)C(=O)O)C(=O)O)CC1
Please rank these compounds by remaining activity at 0.01 µM in descending order. Return value: ordered labels per request.
3, 1, 2

A = NC1CC2(C1)CC(C(=O)N[C@@H](Cc1ccc3ccccc3c1)C(=O)NCCCC[C@H](NC(=O)N[C@@H](CCC(=O)O)C(=O)O)C(=O)O)C2 (some centres unmarked)
B = Cc1ccccc1C[C@H](NC(=O)[C@H]1CC[C@H](CN)CC1)C(=O)NCCCC[C@H](NC(=O)N[C@@H](CCC(=O)O)C(=O)O)C(=O)O
Rank A against B by their remaining activity at 0.01 µM values and give the higher one. // return label of chosen record
B
(B: 158%, A: 94%)
